# credit: patent US8012943B2

S. pyogenes 3029 MIC data
Number in µg/mL, nothing else.

Consider the worked cases shown below.
CC[C@H]1OC(=O)[C@@](C)(F)C(=O)[C@H](C)[C@@H](OC2OC(COC(C)=O)CC(N(C)C)C2O)[C@@](C)(OC)C[C@@H](C)C(=O)[C@H](C)[C@H]2N(CCCCn3cc(-c4cccc(N)n4)nn3)C(=O)O[C@]12C (stereo partly shown) [OP-1356]    1
CC[C@H]1OC(=O)[C@H](C)C(=O)[C@H](C)[C@@H](O[C@@H]2O[C@H](C)C[C@H](N(C)C)[C@H]2O)[C@](C)(OC)C[C@@H](C)C(=O)[C@H](C)[C@H]2N(CCCCn3cnc(-c4cccnc4)c3)C(=O)O[C@]12C [Telithromycin, reference compound]    16

Let us move to another entry and its MIC.
For S. pyogenes 3029, provide MIC of CC[C@H]1OC(=O)[C@@](C)(F)C(=O)[C@H](C)[C@@H](OC2OC(C)CC(N(C)C)C2O)[C@@](C)(OC)C[C@@H](C)C(=O)[C@H](C)[C@H]2N(CCCCn3cc(-c4cccc(N)n4)nn3)C(=O)O[C@]12C (stereo partly shown) [OP-1357] please.
1
